MEASURED ON: SARS-CoV-2 spike protein, WA1/2020, borne on lentiviral pseudovirus (SARS-CoV-2, WA01/2020 strain, UniProt P0DTC2 14-1273)
EXPERIMENT SUMMARY: cell-based or functional assay
I would appreciate it if you labelled entries Fulfilled when Pseudo Neut, WA1/2020 IC50 (pM) is 30000 pM or higher, otherwise Not fulfilled.

BINDER | CLASS
antibody 935 (antibody, V domains shown) VH: EVQLVESGGGLVQPGGSLRLSCAASGFTVSSNYMSWVRQAPGKGLEWVSVIYSGGSTFYADSVKGRFTISRDNSRNTLYLQMNSLRAEDTAVYYCARDWGEFFFDFWGQGALVTVSS VL: EIVLTQSPGTLSLSPGERATLSCRASQTISSSYLAWYQQKPGQAPRLLISGASSRATGIPDRFSGSGSGTDFTLTISRLEPEDFAVYYCQQYGSSPRTFGQGTNVEIK | Not fulfilled
antibody 1213 (antibody, V domains shown) VH: QMQLVQSGAEVKKTGSSVKVSCEASENTFTNRYLHWVRQAPGQALEWMGWITPFQGNTHYAQKFQDRVTITRDRSMNTVYMELSSLRSEDTAIYYCASGGQYGPGSYYFEFWGQGTLVTVSS VL: EIVMTQSPATLSVSPGERATLSCRASQSIRNNLAWYRQKPGQAPRLLIYGASTRAAGVPARFSGSGSGTEFTLTISSLQSEDFAVYYCQQYINWPPLTFGGGTKVEIK | Fulfilled
antibody 2706 (antibody, V domains shown) VH: QVQLVQSGAEVKKPGSSVKVSCKASGGTFSTYAISWVRQAPGQGLEWMGGIIPLFATANYAQNFQGRVTITADKSTSTAYMELSSLRSEDTAVYYCASVRLHLEELSLSHQGDYYYGLDVWGQGTTVTVSS VL: DIQMTQSPSSLSASVADRVTITCQASQDISHYLNWYQQKPGKAPQLLIYDASKLETGAPSRFSGSGSGTDFTFTISSLQPEDIATYYCQQYDHLPLTFGGGSKVEIK | Not fulfilled
antibody 4441 (antibody, V domains shown) VH: EVQLVESGGGLVQPGRSLRLSCAASGLTFEDYAMHWVRQPPGKGLEWVSGVSWNSGTIGYADSVKGRFTISRDNAKNSLYLHMRSLGAEDTAMYYCAKDMGGRFSFFSLENDAFDIWGQGTMVIVSS VL: SYELTQPPSVSVSPGQTARITCSGDALPKQSTYWYQQKPGQAPVLVIYKDIERPSGIPERFSGSSSGTTVTLTISGVQAEDEADYYCQSADSSDTYVFGTGTKVTVL | Not fulfilled
